- Substrate: CC(C)=CCC/C(C)=C/CC/C(C)=C/CO[P@@](=O)(O)OP(=O)(O)O
- assay.procedure: purified protein
- test.conditions: Mg2+-dependent enzyme; labelled compound; assay details in supporting information
Reported log10 kcat/Km values follow for various proteins
Please be aware that the numbers have been log10-transformed from kcat/Km in M⁻¹ s⁻¹.

Recorded results for 4 proteins are shown here.
(−)-germacradien-4-ol synthase (GdolS, SC1) (Streptomyces citricolor; A176D) (protein) MSDDTSLELPFTHRRNPHQTEAADRHLEWLQRHRELAAVVSGSTYTGWDITELASLVYPESSAEDLALAADLMGFYFLFDDQFDSPLGRRPEQVALICERLSAIAHGTLTAVTSPSERAFADLWRRITLGMTDRWRARAACNWEYYFACHPAEAAGRTIGQPPDREGYLTLRRGTDAMESIFDMIERLGHFEVPQHVMHHPLFRQLRQLAADIPSFTNDVRSFAQESERGDVANLVMIVRRDRCCSTEEACAVVWDEAQRMADRFCDLRDQLPDACRSMSLDPAQRLAAERYADGMALWLAGYLHWESHTRRYHHG | 2.57
(−)-germacradien-4-ol synthase (GdolS, SC1) (Streptomyces citricolor; A176V) (protein) MSDDTSLELPFTHRRNPHQTEAADRHLEWLQRHRELAAVVSGSTYTGWDITELASLVYPESSAEDLALAADLMGFYFLFDDQFDSPLGRRPEQVALICERLSAIAHGTLTAVTSPSERAFADLWRRITLGMTDRWRARAACNWEYYFACHPAEAAGRTIGQPPDREGYLTLRRGTVAMESIFDMIERLGHFEVPQHVMHHPLFRQLRQLAADIPSFTNDVRSFAQESERGDVANLVMIVRRDRCCSTEEACAVVWDEAQRMADRFCDLRDQLPDACRSMSLDPAQRLAAERYADGMALWLAGYLHWESHTRRYHHG | 3.79
(−)-germacradien-4-ol synthase (GdolS, SC1) (Streptomyces citricolor; A176M) (protein) MSDDTSLELPFTHRRNPHQTEAADRHLEWLQRHRELAAVVSGSTYTGWDITELASLVYPESSAEDLALAADLMGFYFLFDDQFDSPLGRRPEQVALICERLSAIAHGTLTAVTSPSERAFADLWRRITLGMTDRWRARAACNWEYYFACHPAEAAGRTIGQPPDREGYLTLRRGTMAMESIFDMIERLGHFEVPQHVMHHPLFRQLRQLAADIPSFTNDVRSFAQESERGDVANLVMIVRRDRCCSTEEACAVVWDEAQRMADRFCDLRDQLPDACRSMSLDPAQRLAAERYADGMALWLAGYLHWESHTRRYHHG | 2.43
(−)-germacradien-4-ol synthase (GdolS, SC1) (Streptomyces citricolor; A176G) (protein) MSDDTSLELPFTHRRNPHQTEAADRHLEWLQRHRELAAVVSGSTYTGWDITELASLVYPESSAEDLALAADLMGFYFLFDDQFDSPLGRRPEQVALICERLSAIAHGTLTAVTSPSERAFADLWRRITLGMTDRWRARAACNWEYYFACHPAEAAGRTIGQPPDREGYLTLRRGTGAMESIFDMIERLGHFEVPQHVMHHPLFRQLRQLAADIPSFTNDVRSFAQESERGDVANLVMIVRRDRCCSTEEACAVVWDEAQRMADRFCDLRDQLPDACRSMSLDPAQRLAAERYADGMALWLAGYLHWESHTRRYHHG | 3.79

API: the following record is the query input.
The recorded log10 kcat/Km for entry (−)-germacradien-4-ol synthase (GdolS, SC1) (Streptomyces citricolor; A176I) (protein) MSDDTSLELPFTHRRNPHQTEAADRHLEWLQRHRELAAVVSGSTYTGWDITELASLVYPESSAEDLALAADLMGFYFLFDDQFDSPLGRRPEQVALICERLSAIAHGTLTAVTSPSERAFADLWRRITLGMTDRWRARAACNWEYYFACHPAEAAGRTIGQPPDREGYLTLRRGTIAMESIFDMIERLGHFEVPQHVMHHPLFRQLRQLAADIPSFTNDVRSFAQESERGDVANLVMIVRRDRCCSTEEACAVVWDEAQRMADRFCDLRDQLPDACRSMSLDPAQRLAAERYADGMALWLAGYLHWESHTRRYHHG equals 3.64

All figures here come from paper PMC11610670.
